- test.summary: NCI Yeast Anticancer Drug Screen. Data for the mlh1 rad18 strain (AID 175)
- experimental.context: S. cerevisiae mlh1 rad18 strain growth inhibition; at 50.0 µM (retest, dose inferred, filed as 5.0); hits give high values
The panel holds about 79,000 compounds, 15% with a hit somewhere; the sample as a whole holds those more often. Active and inactive are the calls of the source. Cut-off read from the data, not from the text of the source: active = growth inhibition above about 70%; inactive = the rest.
endpoint.label: growth inhibition

Tell me measured growth inhibition for "O=C(NN1CCOC1=O)OCCCl" please. 1% (inactive)

Query growth inhibition for "c1cc2c3c(cccc3c1)-c1cnccc1-2" 73% (active)

Retrieve growth inhibition measured for "CC(=O)c1ccc2ccc3ccc(O)cc3c2c1" and print it. 97% (active)

State its growth inhibition: "O=C1OC(c2ccc(O)cc2)(c2ccc(O)cc2)c2cccc3cccc1c23" 99% (active)

Please report growth inhibition for the following compound: NC(=O)NC(=O)C(Cc1ccc(Cl)cc1)c1ccccc1 (centres undefined) 5% (inactive)

In one line, give reported growth inhibition of the entry "O=C1c2cccc(NCCCNCCO)c2C(=O)c2cccc(NCCCNCCO)c21" . 42% (inactive)

Indicate its recorded growth inhibition; the compound in question is COc1cccc2c1C(=O)c1c(O)c3c(c(O)c1C2=O)CC(O)(C(C)=O)CC3OC1CC(N)C(O)C(C)O1 (centres undefined) 28% (inactive)

Give the reported value of growth inhibition for this record: CC(O)CN1CCN(CC(C)O)CC1.[I][Pt+2][I] (centres undefined) 16% (inactive)

State its growth inhibition for this compound: "O=C(CC(=O)CC(O)(c1ccccc1)c1ccccc1)CC(=O)c1ccccc1" 97% (active)

Using the record for "CCCN(CCC)C(=S)N/N=C/c1ccccn1" , state its measured growth inhibition. 99% (active)

Retrieve growth inhibition measured for CCC(C)c1ccc(O)c(C(C)CC)c1 (centres undefined) and print it. 99% (active)

Supply growth inhibition value. Item: CN1C(c2ccccc2)CC(=NO)CC1c1ccccc1 (centres undefined) 41% (inactive)

Give the measured growth inhibition for "CCCCCCCCCCCC(=O)CN1CCOCC1" 99% (active)

For the compound "Fc1cccc(CSC(=S)Nc2ccc(F)c(F)c2)c1" , give its reported growth inhibition. 99% (active)

For the compound "CN(C)C(=Nc1nc(=[N+](C)C)ss1)N(C)C" , give its reported growth inhibition. 13% (inactive)

Return growth inhibition (reported value) for this compound: "Clc1ccc(CNNCc2ccc(Cl)cc2)cc1" 94% (active)

Tell me measured growth inhibition for "O=C1CSC(=S)N1c1ccc(Cl)c(C(F)(F)F)c1" please. 95% (active)

// Input: "c1ccc(-c2cnc(-c3ccc(-c4ncc(-c5ccccc5)o4)cc3)o2)cc1" . Output its growth inhibition only. -10% (inactive)

Dear colleague, please send me the reported growth inhibition for "Nc1cc2c(cc1[N+](=O)[O-])[nH]c1c(-c3ccccc3)nccc12" when you can. 98% (active)

Indicate the recorded growth inhibition value for this compound: "O=C(O)/C(=C(/c1ccccc1)c1ccc(Cl)cc1)c1ccccc1" 98% (active)

Look up and report measured growth inhibition for this entry: CCOC(=O)[C@H]1Nc2ccc([N+](=O)[O-])cc2C2c3ccccc3CC21 (some centres undefined) 90% (active)

Fill in reported growth inhibition for this entry: "CCCCCCCCOC(=O)c1cc(O)c(O)c(O)c1" 59% (inactive)

Complete the entry with growth inhibition for "CCN(CC)Cc1cc2c(cc1O)CC[C@@H]1[C@@H]2CC[C@]2(C)C(=O)CC[C@@H]12" 81% (active)

Name the recorded growth inhibition of the item CN1CCN(CN2C(=O)C3C4C=CC(C3C2=O)C2C3C(=O)N(CN5CCN(C)CC5)C(=O)C3C42)CC1 (centres undefined) in your answer. 18% (inactive)
